- System: MS2 coat protein
- method_notes: apparent KD of MS2 coat protein; designed switch direction (-1 OFF switch, 1 ON switch): -1; higher = weaker reporter binding
- details: input ligand: FMN 200 uM

polymer_sequence	target_under_test	apparent KD of MS2 coat protein
UUAAAUCAUGUAGGAUAUGCGUGGGAAAACUAUGCAGAAGGACAUGAGGAUCACCCAUGUGCUUCCGUCUGAGAACAGACGGUA [Mat - Exclusion NG 1 - Mod of JL - D15] (Eterna round: R96, puzzle: Exclusion NG 1)	MS2 coat protein	0.226 µM
UAAAUUAUAGUAAGGAUAUCAGUCGCGAAAGUGGCUGAGAAGGUACAUGAGGAUCACCCAUGUGAAAUAAGAAU [Mod of Zala 17 - Jieux - Brourd's Mod of Exclusion 4] (Eterna round: R97, puzzle: Brourd's mod of Exclusion 4)	MS2 coat protein	0.0257 µM

----------
- Test system: MS2 coat protein
- method_notes: apparent KD of MS2 coat protein; designed switch direction (-1 OFF switch, 1 ON switch): -1; higher = weaker reporter binding
- details: input ligand: microRNA oligo, concentration not stated

polymer_sequence	apparent KD of MS2 coat protein, nM
UAUAUAUAGUAAGGAUAUGUAAUUAUUUUGUAAACAGAAGGUACUGACAUGAGGAUCACCCAUGUUUUAGUGUGGGCAUGUAGA [JMF's solution 44] (Eterna round: R96, puzzle: Exclusion NG 1)	84.5
UAAGGUCGUCAAUACCUAACCACAUGAGGAUCACCCAUGUCUGAGGAUAUGAAGGCGGCCCGCCAUUAGAAGGCAGCAAGGGAA [Ustiarmadi] (Eterna round: R96, puzzle: Exclusion NG 3)	7.89
AGAUGCUCAAGUCGACAUGAGGAUCACCCAUGUACAGUUAAUGAGGAUAUCCGAGAUAAAUAAUAGGAGAAGGCAUGAUCAUGA [Ex NG3 #4] (Eterna round: R96, puzzle: Exclusion NG 3)	47.3
AGAGUGCUGCGAGGAUAUACAUGAGGAUCACCCAUGUUUACCUGUGAGGCAAAGCCUCACAGGUUGUAGAAGGCGCAGUACUCA [Mat - Exclusion NG 2 - Mod of JL - D42] (Eterna round: R96, puzzle: Exclusion NG 2)	10.1
UACAUGAGGAUCACCCAUGUUUUGUCGUGUAUGGUAUUUAUCUAGGAUAUCAAUUUGUUAAUUUAUGAGAAGGAGAAUAUUAAU [JMF's solution 69] (Eterna round: R96, puzzle: Exclusion NG 3)	29.6

----------
- System: K4 kissing-loop RNA reporter;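 also: bound reporter read as fluorescence of individual clusters on recovered sequencing chips by microscopy, with normalized cluster intensities fitted with a binding model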
- method_notes: apparent KD of K4 kissing-loop reporter; higher = weaker reporter binding
- details: Eterna round: R107; input ligand: tryptophan 2.4 mM
measured_attribute: apparent KD of K4 kissing-loop reporter

polymer_sequence	measured_attribute	recorded_value
AAUACGCCGAAAGGAUAUAUAGAACAUCAAGGGCGCUGACUUUGCUAAAUCACAAGUGAUGUUUGUAUAGAAGGUUCGCAGUCAA [theeternabot_exclusion_KL_FMN_B_30]	apparent KD of K4 kissing-loop reporter	437 nM
AUUCUUUUUUUGAUGUUUUUUGUAUAAUGGCAGGAUAUCGUAGAAGCGAGAAGGGCUUUUAUGCGUUAUGAGUGAUGUUUGUAGG [szeewvmullin]	apparent KD of K4 kissing-loop reporter	205 nM
CUCGUGGGUUUGAGAGGGCUUGUGGGAAGUAAGGAUAUUUAGGGAGGAAGAAGGUACUAUAGAAUAUAGUGAUGUUAUAUAUGGG [SSFMNA.Y]	apparent KD of K4 kissing-loop reporter	244 nM
UGUACCGAGUCAGGAUAUACCGUCGAAAGACGAAAUGGAGUGAUGUUCCUUAAACUGCGAAAGCAGGUAGAAGGGACUUGGUACU [FmnBS 30 #SwitchBubble #StaticStem #DoubleMagnetSystem]	apparent KD of K4 kissing-loop reporter	262 nM
AAAAUUAAGGCCGAAUAAACUUAUUUCAUACGAGGACCGGUACGGCCGCCACUCGAGUCAAGUGAUGUUUGACUAUCUAUUAUUA [JR_ExcTryptoA_Sub009]	apparent KD of K4 kissing-loop reporter	54 nM
CGAGUACAUUGCGAUACCAGCGAUAGCAGUUCAACGCGCAGUCCGUUUAGUGAUGUUAGACGCCCUUGGCAGCGCUUCCUGGCAA [theeternabot_exclusion_KL_Theo_B_44]	apparent KD of K4 kissing-loop reporter	393 nM
CGCAGUGAUGUUGCGAGUUCAUUCAGGGAAGGAGCGCCACAGAUGGCAGGUAGGUCGCCCACGCAGUGAUGUUGUGUAUUCGGGU [Exclusion Arginine A GF 2]	apparent KD of K4 kissing-loop reporter	137 nM
AAUUAAGUGACGGCCGCCACUAGGGUGAUUUUUUUGUUUGAGUGAUGUUUUGAUGUUUGAUUUUGUAGGACCGGGUUAGGUGAUG [juhmullin]	apparent KD of K4 kissing-loop reporter	252 nM
AAUAAUAAUAAAUAAAGAUUGAUGAGCAAACGAGGACCGGUACGGCCGCCACUCGAGUGAUGUUCGAGAAGCUCAUCAAUCAUAA [AK4.8 Exc Tryptophan A]	apparent KD of K4 kissing-loop reporter	337 nM
AAAUUUAAUAUAUUUAAUUAAUUAUGUGAUACCAGACAUUAAUAAGUCCCUUGGCAGCACAAUGCAGUGAUGUUGCAUAUAAUAA [JR_SSTheophyA_Sub011]	apparent KD of K4 kissing-loop reporter	65.4 nM
GGUAUCCAGUACCAUUGCGUUAAAACAGAAGGAGCGAGAAUAGACUCAGGUAGGUCGCUGUUUAUAGUCGAGUGAUGUUCGAAUC [Same State Arginine A GF 14]	apparent KD of K4 kissing-loop reporter	188 nM
AUAAACUUGCAGUGAUGUUGCAAGUAAGACUAGGAUAUCAGGAAACUGAGAAGGAGUCAUCUCCUUCACUUGCAACUAGGAGGAG [[K1]-[K2]-[F1]-[F2]-[F]'-[K]'-[F]''_Design6]	apparent KD of K4 kissing-loop reporter	133 nM
UCCCUAAAGGGAGAUACCAGUAAAGAAGUGACGGAGUGGAGUGAUGUUCCAUAUUACUGAUACCCUUGGCAGCUCUUUUGAUUAC [theeternabot_sameState_KL_Theo_B_47]	apparent KD of K4 kissing-loop reporter	93.2 nM
CCAAUCAGUUACGAUACCAGUCUAAUAUAUUUGAUCAAAACCCUCGCCGAGUGAUGUUCGGACCCUUGGCAGCGUCUGGGACAGG [fcctmullin]	apparent KD of K4 kissing-loop reporter	394 nM
AACUCUCAGGCAGCCGAGUGAUGUUCGGCCCGAGGACCGGUACGGCCGCCACUCGGGCCUGAGAGAGGUUAUCAAAGAUAGCCAA [#01 K4 Tryptophan A Same State]	apparent KD of K4 kissing-loop reporter	131 nM
UCCAGGAAUCAUGUCGUAGUGAUGUUAUGACGAGGACCGGUACGGCCGCCACUCGUCGUGGCCGGUUCUGAGGGCUAAUCUCUCA [theeternabot_exclusion_KL_Trp_A_34]	apparent KD of K4 kissing-loop reporter	632 nM
AUGUCUUAUAAACUCAUGGUUUCGACAGAUACCAGCUUCGAGAGGAGCCCUUGGCAGCUGCAUGAGUGAUGUUCAUGUACGAAGA [KL-XTheoA6]	apparent KD of K4 kissing-loop reporter	301 nM
CCAUCGCUAUUCGAUACCAGCUCCUUAGUGAUGUUAAGGUUUUACGCUCUGUAGGAGCGAAGCCCUUGGCAGCGAGUAGUGAUGG [#04 K4 Theophylline B Same State]	apparent KD of K4 kissing-loop reporter	1110 nM
UAAAUAAUAAAACGAGUGAUGUUCGACGAUACCAGCCUCGAUAGAGGCCCUUGGCAGCGUAAAUGAUCACAAAGCCAAGGUAUAA [#01 K4 Theophylline A Exclusion]	apparent KD of K4 kissing-loop reporter	138 nM
UGGAUUAGGACGGCCGCCACUACGCUGGCAUGAGUGAUGUUCUAAGGCUUGUCAAAGAUCCAGAGUAGGACCGGGUCCAAUGACU [theeternabot_exclusion_KL_Trp_B_38]	apparent KD of K4 kissing-loop reporter	271 nM
AUUCGUUUAUGUGAUACCAGACUUUGCAGUGAUGUUGCAUUAAUUAUUGAUGAUUAGUUUGUCCCUUGGCAGCACUAUUUAUUUA [JR_SSTheophyB_Sub003]	apparent KD of K4 kissing-loop reporter	47.7 nM
AACGCUUGAAUAACAAGCGAAAUAAAUUCGCGAGGACCGGUACGGCCGCCACUCGCUAACUGCGAGUGAUGUUCGAUAAUAAAAU [Mat - Mod of OpenEnded 3 - D15]	apparent KD of K4 kissing-loop reporter	71 nM

----------
- Tested on: MS2 coat protein
- method_notes: apparent KD of MS2 coat protein; designed switch direction (-1 OFF switch, 1 ON switch): -1; higher = weaker reporter binding
- details: Eterna round: R98; input ligand: none
apparent KD of MS2 coat protein below 100 nM gives false; apparent KD of MS2 coat protein at or above it gives true.

polymer_sequence	target_under_test	assigned_category
AGACUCAGAUGGUGCCAGCUUGCACAUGAGGAUCACCCAUGUCAGGAUAUCUUCGCUCCGGGAGAAGAGAAGGGACAAGAAAUU [Anenan]	MS2 coat protein	true
GUCAGGAAUGUAGGAUAUCGUCAGGAAUACUGGCGAGAAGGACAUGAGGAUCACCCAUGUAAAAUGAAAGAUAAUAAACCUGGC [Exclsuion NG 1/2-C1]	MS2 coat protein	false
GCGGGAUGAGUCGUUGGUUCACAUGAGGAUCACCCAUGUAGGGAGGAUAUGCAUCUGGUCCCGGAGCAGAAGGCCCUGCAUCGA [Raedxea]	MS2 coat protein	true
UCGAACGGAAACAAAGUCAAUAGACAUGAGGAUCACCCAUGUAAGGAUAUGCCUACUAAAAGUAGGCAGAAGGUACGCGUUCGA [Contusion 5 - Jieux - Exclusion NG 3]	MS2 coat protein	false
CACCGUUACAGAGGAUAUGACACAUGAGGAUCACCCAUGUAAUAAAUGAGAAUUUCGAAUGUAACUCAGAAGGCUGGAAUCGGC [JieuxMod 1 - Jieux - Exclusion NG 2]	MS2 coat protein	false
CCGGGCCCGGGAGGAUAUACAUGAGGAUCACCCAUGUAUUCUCGGCCCGGCGAAAGCCGGGCCAUGUAGAAGGCCCGGGCCCGG [high melting point]	MS2 coat protein	false
